# study_system: L-lactate dehydrogenase B chain (Homo sapiens)
# Sequence (P07195 whole entry): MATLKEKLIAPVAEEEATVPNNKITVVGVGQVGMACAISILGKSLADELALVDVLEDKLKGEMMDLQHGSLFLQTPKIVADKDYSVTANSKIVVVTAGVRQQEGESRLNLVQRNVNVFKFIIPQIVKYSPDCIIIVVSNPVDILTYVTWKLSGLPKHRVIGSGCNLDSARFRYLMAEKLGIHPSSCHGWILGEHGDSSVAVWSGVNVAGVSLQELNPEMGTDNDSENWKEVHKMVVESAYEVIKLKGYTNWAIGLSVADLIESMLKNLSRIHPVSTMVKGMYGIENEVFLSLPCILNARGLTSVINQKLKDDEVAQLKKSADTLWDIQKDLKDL
# assay_remarks: Lactate Dehydrogenase Inhibition Assay
property: IC50

q: Fill blank: measured IC50 of the molecule `CCOC(=O)c1c[nH]oc1=O` is ____.
a: > 100 µM

q: Another molecule: `O=C(O)c1c(O)nnn1Cc1ccccc1`
a: > 100 µM

q: What do you have for `Cn1occ(C(=O)O)c1=O` ?
a: > 100 µM

q: Also `Nc1nonc1C(=O)O` , if possible.
a: > 200 µM

q: Also, `O=C(O)c1nsnc1O` please.
a: 10.3 µM

Let us examine a further case.
q: Which measured IC50 value corresponds to `O=C(O)c1noc(C(=O)O)c1O` ?
a: > 100 µM

====

# collection of IC50 values tested on L-lactate dehydrogenase B chain (Homo sapiens)

Examples with answers:
q: Recorded IC50 of O=C(O)c1nocc1O [4-hydroxy-1,2-oxazole-3-carboxylic acid] , please.
a: > 100 µM

q: Further, for O=C(O)c1conc1O [3-hydroxy-1,2-oxazole-4-carboxylic acid] ?
a: 54 µM

Proceed to the following item.
q: # lookup: IC50 of `Cn1nnc(O)c1C(=O)O`
a: > 100 µM

Values compiled from BindingDB's records for doi:10.1074/jbc.M402433200.
